Tested on: NCI60 cell lines
assaySummary: NCI60 cell line panel
Assay type: cell-based, human
settings: Melanoma, UACC-257
Here the recorded GIPRCNT: % Growth inhibition is given for each entry.
A complete answer gives the number followed by the unit.

CCN(CC)CCCC(C)Nc1cnc(C(=O)Nc2cc(C)cc3cccnc23)cn1 (centres unmarked)
71.75%
CCN(CC)CCCC(C)Nc1cnc(C(=O)Nc2ccc(Cl)c3cccnc23)cn1 (centres unmarked)
−32.9601%
CCN(CC)CCCC(C)Nc1cnc(C(=O)Nc2cc(F)cc3cccnc23)cn1 (centres unmarked)
76.77%
O=C(Nc1cc(F)cc2cccnc12)c1cnc(N2CCNCC2)cn1
91.12%

[Q] Test system NCI60 cell lines; read-out GIPRCNT: % Growth inhibition; what value for CCN(CC)CCCC(C)Nc1cnc(C(=O)Nc2cccc3ccc(OC)nc23)cn1 (centres unmarked) ?
[A] −39.0086%

* * *

Tested on: NCI60 cell lines
assaySummary: NCI60 cell line panel
Type: cell-based, human
settings: Breast Cancer, HS 578T
resultType: GIPRCNT: % Growth inhibition

Observe how each entry below is paired with its result.
O=C(Nc1cc(F)cc2cccnc12)c1cnc(N2CCNCC2)cn1 [J44]
71.77%
CCN(CC)CCCC(C)Nc1cnc(C(=O)Nc2cc(F)cc3cccnc23)cn1 (stereo not drawn) [J17]
69.28%

Here is the next item to consider.
[Q] // query GIPRCNT: % Growth inhibition value for entry CCN(CC)CCCC(C)Nc1cnc(C(=O)Nc2cccc3ccc(OC)nc23)cn1 (stereo not drawn) [J11]
[A] 69.51%
